Reported Bone destruction inhibition rate values are given for each entry in this list.
tested on: Male DBA/1J mice; assay: Type II collagen-induced arthritis in mouse; type: in vivo; settings: 10 mg/kg orally once a day from 21 to 35 days after the initial inoculation; X-ray bone destruction score 36 days after initial inoculation, vs control group
// units = %; emit number, no label

{"Molecule": "COc1cc(COc2ccc(C(=O)c3ccc(OC4CCCC4)cc3O)cc2CCC(=O)O)ccc1C(=O)O [Example 48]", "Bone destruction inhibition rate, %": 64}
{"Molecule": "CC(Oc1ccc(C(=O)c2ccc(OC3CCCC3)cc2O)cc1CCC(=O)O)c1ccc(C(=O)O)cc1 (stereo not drawn) [49(12)]", "Bone destruction inhibition rate, %": 76}
{"Molecule": "O=C(CCc1cc(C(=O)c2ccc(OC3CCCC3)cc2O)ccc1OCc1ccc2c(O)noc2c1)OCCN1CCOCC1 [Example 76]", "Bone destruction inhibition rate, %": 99}

-- ask State the recorded Bone destruction inhibition rate for this entry: O=C(O)CCc1cc(C(=O)c2ccc(OC3CCCC3)cc2O)ccc1OCc1csc2c(C(=O)O)cccc12 [Example 45]
-- reply 81

-- ask Subsequent entry: O=C(O)CCc1cc(C(=O)c2ccc(OC3CCCC3)cc2O)ccc1OCc1ccc2c(O)noc2c1 [Example 35]
-- reply 92

-- ask Try this molecule next: CCOC(=O)c1ccc(COc2ccc(C(=O)c3ccc(OC4CCCC4)cc3O)cc2CCC(=O)O)cc1OC [54(2)]
-- reply 78

----------
target: AP-1 complex (Fos/Jun peptide) (Homo sapiens, UniProt P01100+P05412); construct: made in house; host or cells: chemical peptide synthesis (no expression host); test: Effect on AP-1 binding activity to AP-1 recognition sequence (ELISA); conditions: inhibition of binding of digoxigenin-labeled AP-1 binding sequence oligonucleotide to Fos/Jun peptide, absorbance 492 nm, read-out: Concentration (μM) at 50% inhibition
Sequence (P01100 137-200 limits assumed): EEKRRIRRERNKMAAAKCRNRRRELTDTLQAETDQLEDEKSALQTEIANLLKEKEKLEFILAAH
Sequence (P05412 252-315 limits assumed): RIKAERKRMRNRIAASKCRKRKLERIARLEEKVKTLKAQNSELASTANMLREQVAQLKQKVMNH
The following compounds are shown together with reported IC50 values.
I only need the number, in µM, no unit after it.

{"Chemical Structure": "O=C(O)CCc1cc(C(=O)c2ccc(OC3CCCC3)cc2O)ccc1OCc1ccc2c(O)noc2c1", "IC50 [µM]": 290}
{"Chemical Structure": "CS(=O)(=O)NC(=O)c1ccc(COc2ccc(C(=O)c3ccc(OC4CCCC4)cc3O)cc2CCC(=O)O)cc1", "IC50 [µM]": 580}

-- ask What value of IC50 has been reported for the following compound? O=C(O)CCc1cc(C(=O)c2ccc(C3CCCC3)cc2O)ccc1OCc1ccc(C(=O)O)cc1
-- reply 360

-- ask Repeat with O=C(O)CCc1cc(C(=O)c2ccc(OC3CCCCC3)cc2O)ccc1OCc1ccc(C(=O)O)cc1
-- reply 320

----------
molecular target: AP-1 complex (Fos/Jun peptide) (Homo sapiens, UniProt P01100+P05412); construct: made in house; host or cells: chemical peptide synthesis (no expression host); assay: Effect on AP-1 binding activity to AP-1 recognition sequence (ELISA); settings: inhibition of binding of digoxigenin-labeled AP-1 binding sequence oligonucleotide to Fos/Jun peptide, absorbance 492 nm, read-out: Concentration (μM) at 50% inhibition
Lab note: cut-off is 300 µM. Strictly less in IC50 is t. Exactly 300 µM or more is f.

-- ask Report whether reported IC50 is lower than 300 µM (strictly) for CC(C)(C)COc1ccc(C(=O)c2ccc(OCc3ccc(C(=O)O)cc3)c(CCC(=O)O)c2)c(O)c1
-- reply t

-- ask # repeat for O=C(O)CCc1cc(C(=O)c2ccc(-c3cccs3)cc2O)ccc1OCc1ccc(C(=O)O)cc1
-- reply f

-- ask Could you do the same for O=C(O)CCc1ccc(COc2ccc(C(=O)c3ccc(OC4CCCC4)cc3O)cc2CCC(=O)O)cc1 , please?
-- reply f

-- ask Lookup CC(C)COc1cc(COc2ccc(C(=O)c3ccc(OC4CCCC4)cc3O)cc2CCC(=O)O)ccc1C(=O)O
-- reply f

-- ask Please do the same for O=C(O)CCc1cc(C(=O)c2ccc(OC3CCCCCC3)cc2O)ccc1OCc1ccc(C(=O)O)cc1 as well.
-- reply t

-- ask // same read-out, input: COc1cc(COc2ccc(C(=O)c3ccc(OC4CCCC4)cc3O)cc2CCC(=O)O)ccc1C(=O)O
-- reply f

----------
system: Male DBA/1J mice; assay: Type II collagen-induced arthritis in mouse; format: in vivo; details: 10 mg/kg orally once a day from 21 to 35 days after the initial inoculation; arthritis score on 36 days after initial inoculation, vs control group
Measured Attribute: Arthritis inhibition rate (%)
All answers are understood in %, so give the number only.

{"Molecule": "CC(Oc1ccc(C(=O)c2ccc(OC3CCCC3)cc2O)cc1CCC(=O)O)c1ccc(C(=O)O)cc1 (stereo not drawn)", "Arthritis inhibition rate, %": 50}
{"Molecule": "CCOC(=O)c1ccc(COc2ccc(C(=O)c3ccc(OC4CCCC4)cc3O)cc2CCC(=O)O)cc1OC", "Arthritis inhibition rate, %": 65}
{"Molecule": "O=C(CCc1cc(C(=O)c2ccc(OC3CCCC3)cc2O)ccc1OCc1ccc2c(O)noc2c1)OCCN1CCOCC1", "Arthritis inhibition rate, %": 90}
{"Molecule": "COc1cc(COc2ccc(C(=O)c3ccc(OC4CCCC4)cc3O)cc2CCC(=O)O)ccc1C(=O)O", "Arthritis inhibition rate, %": 57}
{"Molecule": "O=C(O)CCc1cc(C(=O)c2ccc(OC3CCCC3)cc2O)ccc1OCc1ccc2c(O)noc2c1", "Arthritis inhibition rate, %": 76}

Turning to the following molecule.
-- ask Please look up its Arthritis inhibition rate: O=C(O)CCc1cc(C(=O)c2ccc(OC3CCCC3)cc2O)ccc1OCc1csc2c(C(=O)O)cccc12
-- reply 55

----------
Form field: IC50 (one value per entry).
biological target: AP-1 complex (Fos/Jun peptide) (Homo sapiens, UniProt P01100+P05412); construct: made in house; host or cells: chemical peptide synthesis (no expression host); test: Effect on AP-1 binding activity to AP-1 recognition sequence (ELISA); details: inhibition of binding of digoxigenin-labeled AP-1 binding sequence oligonucleotide to Fos/Jun peptide, absorbance 492 nm, read-out: Concentration (μM) at 50% inhibition
Write the answer as a number in µM, unit excluded.

{"Compound": "CCOC(=O)CCc1cc(C(=O)c2ccc(OCC(C)C)cc2O)ccc1OCc1ccc(C(=O)O)cc1 [72(1)]", "Measured On": "AP-1 complex (Fos/Jun peptide) (Homo sapiens, UniProt P01100+P05412)", "Result": 240}

-- ask Returns the measured IC50 for the input compound. Input: O=C(O)CCc1cc(C(=O)c2ccc(CC3CCCC3)cc2O)ccc1OCc1ccc(C(=O)O)cc1 [49(22)]
-- reply 200

-- ask Please answer likewise for O=C(O)CCc1cc(C(=O)c2ccc(OCC3CCCC3)cc2O)ccc1OCc1ccc(C(=O)O)cc1 [49(29)]
-- reply 220

-- ask Do the same for O=C(O)CCc1cc(C(=O)c2ccc(OC3CCCC3)cc2O)ccc1OCc1ccc(C(=O)O)cc1F [49(51)] please
-- reply 300

----------
target: AP-1 complex (Fos/Jun peptide) (Homo sapiens, UniProt P01100+P05412); construct: made in house; host or cells: chemical peptide synthesis (no expression host); assay: Effect on AP-1 binding activity to AP-1 recognition sequence (ELISA); details: inhibition of binding of digoxigenin-labeled AP-1 binding sequence oligonucleotide to Fos/Jun peptide, absorbance 492 nm, read-out: Concentration (μM) at 50% inhibition
The threshold is 300 µM. Values of IC50 beneath it are tagged Met; values meeting or exceeding it are tagged Not met.

Solved entries:
{"Compound": "CC(C)COc1ccc(C(=O)c2ccc(OCc3ccc(C(=O)O)cc3)c(CCC(=O)O)c2)c(OCC(C)C)c1", "Class Label": "Not met"}
{"Compound": "CC(Oc1ccc(C(=O)c2ccc(OC3CCCC3)cc2O)cc1CCC(=O)O)c1ccc(C(=O)O)cc1 (stereo not drawn)", "Class Label": "Not met"}
{"Compound": "CC(C)COc1ccc(C(=O)c2ccc(OCc3ccc(C(=O)O)cc3)c(CCC(=O)O)c2)c(O)c1", "Class Label": "Not met"}
{"Compound": "O=C(O)/C=C/c1ccc(COc2ccc(C(=O)c3ccc(OC4CCCC4)cc3O)cc2CCC(=O)O)cc1", "Class Label": "Not met"}
{"Compound": "COc1cc(COc2ccc(C(=O)c3ccc(OC4CCCC4)cc3O)cc2CCC(=O)O)ccc1CCC(=O)O", "Class Label": "Not met"}

-- ask Dear colleague, could you confirm whether IC50 of O=C(O)CCc1cc(C(=O)c2ccc(OC3CCCC3)cc2O)ccc1OCc1csc2c(C(=O)O)cccc12 falls below 300 µM? Thanks.
-- reply Met

-- ask One more compound: O=C(O)CCc1cc(C(=O)c2ccc(OC3CCCC3)cc2O)ccc1OCc1ccc(-c2cc(O)no2)cc1
-- reply Met

-- ask Try this compound next: CN1CCN(c2ccc(COc3ccc(C(=O)c4ccc(OC5CCCC5)cc4O)cc3CCC(=O)O)cc2)C(=O)C1=O
-- reply Not met
